Biological target: binding partner of C5A (XPA23)
Assay: Biacore
Assign fold difference in affinity vs original to each entry below.
State just the number; it will be interpreted in fold.

# query: fold difference in affinity vs original of entry C5A (XPA23) VH G56A (antibody, V domains shown) VH: EVQLLESGGGLVQPGGSLRLSCAASGFTFSKYFMFWVRQAPGKGLEWVSVISPSGAMTRYADSVKGRFTISRDNSKNTLYLQMNSLRAEDTAVYYCARVGYGGNSDYWGQGTLVTVSS VL: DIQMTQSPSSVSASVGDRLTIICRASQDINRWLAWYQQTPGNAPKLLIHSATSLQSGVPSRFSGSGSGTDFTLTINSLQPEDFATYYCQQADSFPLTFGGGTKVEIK
1.21

Reported fold difference in affinity vs original for C5A (XPA23) VH N104G (antibody, V domains shown) VH: EVQLLESGGGLVQPGGSLRLSCAASGFTFSKYFMFWVRQAPGKGLEWVSVISPSGGMTRYADSVKGRFTISRDNSKNTLYLQMNSLRAEDTAVYYCARVGYGGGSDYWGQGTLVTVSS VL: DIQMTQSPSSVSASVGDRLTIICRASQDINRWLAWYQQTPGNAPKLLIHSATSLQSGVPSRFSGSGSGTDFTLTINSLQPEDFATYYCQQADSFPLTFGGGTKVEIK : what is it?
1.21

Each recorded value in this set is attributed to patent US20110118447A1.
